B1: OR4K15 (parent)
chain: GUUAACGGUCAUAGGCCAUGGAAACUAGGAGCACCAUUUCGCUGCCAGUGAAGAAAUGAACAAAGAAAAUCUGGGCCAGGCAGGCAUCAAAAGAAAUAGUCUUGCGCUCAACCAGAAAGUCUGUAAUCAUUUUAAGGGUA

Variants of: B1
assay_protocol: self-cleavage, relative activity (ratio to wild type); higher = more cleavage; in vitro, sequencing; the parent is a self-cleaving ribozyme
Kindly supply the reported self-cleavage values for the records listed here.

Input G31A A78U , output reported self-cleavage. 0.43

Supply reported self-cleavage belonging to this variant: A82G C113U 0.05

Using known records, supply self-cleavage for U3C A111G 0.03

Tell me measured self-cleavage for G31U A118G please. 1.06

Identify self-cleavage associated with the variant C34A A60G 1.39

Give the value of self-cleavage reported for the following: G83A C109U 0.71

Please supply the value of reported self-cleavage for the item A11G G41U 1.91

Give the reported value of self-cleavage for this record: G79U U132C 0.09

Retrieve self-cleavage measured for A5G A116U and print it. 0.25

Specify measured self-cleavage for G83A A117U . 1.21

Please give measured self-cleavage of the following entry: A94G A114U 0.04

Specify reported self-cleavage for the variant shown: A69C A96U 0.68

Answer with reported self-cleavage of A64G A86G 1.15

Every entry's value here was drawn from the RNAGym collection of RNA variant scans (doi:10.7554/elife.90254).
